- Test system: NCI/ADR-RES
- procedure-text: NCI tumour cell line growth inhibition, 48 h
Calls of active or inactive are those of the source. No stated cut-off is given here; in the data, active = GI50 up to about 1.1 µM and inactive = higher.
Labels: yes (active), no (inactive)

COc1cc(O)c2c(O)c3c(c4c2c1[C@]1(C4)C(C)=CCCC1(C)C)[C@H](O)[C@@]1(O)CC(O)=C(C(N)=O)C(=O)[C@@]1(O)C3=O
yes
CCC1=C(CC2NCCc3cc(OC)c(OC)cc32)CC2c3ccccc3CCN2C1 (centres undefined)
no
O=c1c2ccccc2n2nnc3ccc(NCCNCCO)c1c32
yes
CC(C)=CCC/C(C)=C/CC/C(C)=C/CC/C(C)=C/C=C/C=C(\C)CC/C=C(\C)CC/C=C(\C)CCC=C(C)C
no
